Form field: Activity (one value per entry).
Biological target: Transthyretin (Homo sapiens, UniProt P02766)
Assay: Inhibition of transthyretin amyloidosis assessed as fibril formation at 21.6 uM at pH 4.4 relative to control
Assay type: functional
Design: scale not given: the % may be the effect or the level left

substance.smiles: Oc1ccccc1-c1nnc(S)o1
output.unit: %
Activity: 0
--
substance.smiles: COc1cc(C=O)ccc1Oc1ccccc1
output.unit: %
Activity: 0
--
substance.smiles: O=C(O)c1ccc(Oc2ccc(Cl)cc2Cl)c(O)c1
output.unit: %
Activity: 13.3
--
substance.smiles: Oc1cc(CCl)ccc1Oc1ccc(Cl)cc1Cl
output.unit: %
Activity: 0
--
substance.smiles: O=C(O)c1ccc(Oc2ccccc2)c(O)c1
output.unit: %
Activity: 5
--
substance.smiles: Oc1cc(Cl)ccc1Oc1ccc(Cl)cc1Cl
output.unit: %
Activity: 66
--
substance.smiles: OCc1ccc(Oc2ccc(Cl)cc2Cl)c(O)c1
output.unit: %
Activity: 2.6
--
substance.smiles: COc1cc(CCl)ccc1Oc1ccc(Cl)cc1Cl
output.unit: %
Activity: 0
--
substance.smiles: N[C@H](Cc1cc(I)c(Oc2cc(I)c(O)c(I)c2)c(I)c1)C(=O)O
output.unit: %
Activity: 7
--
substance.smiles: O=Cc1ccc(Oc2ccc(Cl)cc2Cl)c(O)c1
output.unit: %
Activity: 0
--
substance.smiles: COc1cc(C(=O)O)ccc1Oc1ccc(Cl)cc1Cl
output.unit: %
Activity: 0
--
substance.smiles: COc1cc(CCl)ccc1Oc1ccccc1
output.unit: %
Activity: 0
--
substance.smiles: O=C(Nc1nnc[nH]1)c1c(Cl)ccc(Cl)c1Cl
output.unit: %
Activity: 3.6

---

Target: Transthyretin (Homo sapiens, UniProt P02766)
Experiment: Inhibition of transthyretin fibril formation at pH 4.4 at 50 uM
Assay type: functional
Design: scale not given: the % may be the effect or the level left
Each entry gets rule not met if its Activity stays under 40%, and rule met if its Activity is 40% or above.

substance.smiles: COc1cc(CO)ccc1Oc1ccccc1
label.class: rule met

substance.smiles: COc1cc(C(=O)O)ccc1Oc1ccc([N+](=O)[O-])cc1[N+](=O)[O-]
label.class: rule met

substance.smiles: COc1cc(C=O)ccc1Oc1ccccc1
label.class: rule not met

substance.smiles: COc1cc(C=O)ccc1Oc1ccc([N+](=O)[O-])cc1[N+](=O)[O-]
label.class: rule met

substance.smiles: OCc1ccc(Oc2ccc(Cl)cc2Cl)c(O)c1
label.class: rule not met

substance.smiles: O=C(O)c1ccc(Oc2ccc(Cl)cc2Cl)c(O)c1
label.class: rule not met

substance.smiles: COc1cc(CO)ccc1Oc1ccc([N+](=O)[O-])cc1[N+](=O)[O-]
label.class: rule not met

substance.smiles: O=C(O)c1ccc(Oc2ccc([N+](=O)[O-])cc2[N+](=O)[O-])c(O)c1
label.class: rule met

substance.smiles: COc1cc(CO)ccc1Oc1ccc([N+](=O)[O-])cc1
label.class: rule met

---

Target: Transthyretin (Homo sapiens)
Assay: Inhibition of transthyretin amyloidosis assessed as fibril formation pH 4.4 at 100 uM
Type: functional
readout.kind: percent fibril formation relative to control (%)

compound: Oc1ccc(Nc2nc(-c3ccc(Cl)cc3)nc3ccccc23)cc1
endpoint.result: 96
//
compound: Cc1ccc(/C=c2/sc3nc4ccccc4n3c2=O)cc1
endpoint.result: 125
//
compound: COc1ccc(NC(=S)N(CCCN2CCOCC2)Cc2cccnc2)cc1
endpoint.result: 98.6
//
compound: Oc1ccc(-c2n[nH]c(=S)o2)cc1
endpoint.result: 19.2
//
compound: Cc1ccccc1Nc1c(-c2ccc(Cl)s2)nc2ccc(Cl)cn12
endpoint.result: 306
//
compound: O=C1CSC(c2ccc(Cl)cc2Cl)N1c1ccc(Cl)cc1 (configuration not stated)
endpoint.result: 20.3
//
compound: COc1ccc(NC(=S)N(CCCN2CCOCC2)Cc2cccs2)cc1
endpoint.result: 102
//
compound: O=C(NC(c1ccco1)c1cc(Cl)c2cccnc2c1O)c1cccnc1 (configuration not stated)
endpoint.result: 36.7
//
compound: Cc1nc2c(ccc3ccccc32)c(O)c1CN1CCOCC1
endpoint.result: 69.6
//
compound: Cc1nc2c(ccc3ccccc32)c(O)c1CN1CCCC1
endpoint.result: 66.9
//
compound: O=C(NC(c1ccccc1)c1cc(Cl)c2cccnc2c1O)c1cccnc1 (configuration not stated)
endpoint.result: 29.6
//
compound: Nc1nc(F)cc(Oc2ccc(F)cc2)n1
endpoint.result: 84
